test_system: T1, recombinant human domain 1-3His6 of the cation-independent mannose-6-phosphate receptor (human, UniProt P11717 41-467)
T1 construct: Biotinylated (NHS-PEG4-biotin) for BLI; Glycosylated; also called hDom1-3His6; hCI-M6PRD1-D3
test_name: ELISA on coated antigen (100 ng), anti-VHH-HRP, A450
endpoint_label: EC50 (read off the curve)

[ask] Value lookup for EC50 (read off the curve); key = anti-CI-M6PR VHH5 (VHH, His6-tagged; made in Pichia pastoris, later also in E. coli WK6) VHH: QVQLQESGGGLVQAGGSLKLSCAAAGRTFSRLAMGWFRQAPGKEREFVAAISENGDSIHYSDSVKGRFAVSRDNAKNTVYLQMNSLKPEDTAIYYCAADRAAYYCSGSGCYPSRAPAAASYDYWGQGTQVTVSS
[reply] ~2 nM

[ask] Fill in the blank: the reported EC50 (read off the curve) of anti-CI-M6PR VHH1 (VHH, His6-tagged; made in Pichia pastoris, later also in E. coli WK6) VHH: QVQLQESGGGLVQPGGSLRLSCVASGFTFDRYWMNWLRQIPGKEIEWVSTINTGGTGTYYDDSVKGRFSISRDDAKNTLYLTMNSLKTEDTAVYYCARGATYYRGNSAIRGQGTQVTVSS is ____.
[reply] ~10 nM

[ask] Could you tell me which EC50 (read off the curve) is on file for humanized VHH7 variant VHH7hWN (VHH, His6-tagged, made in HEK293S) VHH: DVQLVESGGGLVQPGGSLRLSCAASGIIFSDNRMDWYRQAPGKQREWVATLASYGWKTYADSVKGRFTISRDNAKNTVYLQMNSLRPEDTAVYYCKASSPVLNDIWGQGTLVTVSS ?
[reply] ~0.5 nM

[ask] Item anti-CI-M6PR VHH7 (VHH, His6-tagged (Pichia pastoris)) VHH: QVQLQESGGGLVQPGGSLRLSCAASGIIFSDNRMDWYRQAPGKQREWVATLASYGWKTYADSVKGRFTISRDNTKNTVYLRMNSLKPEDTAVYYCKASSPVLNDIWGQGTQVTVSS has what recorded EC50 (read off the curve)?
[reply] ~0.3 nM
